The origin of these recorded values is patent US10532106B2.

- target_under_test: MT1-MMP hemopexin domain (Homo sapiens)
- Construct: residues Cys319-Gly511 from the human gene; His6 (N); made in house; host or cells: HEK293 (transient), pEXPR-IBA42 vector
- assay_details: Competition assay using fluorescence polarisation
- Assay type: binding
- assay_setup: Table 8; substitutions at position 4; read-out: Kd
Numbered stars: 1 amine (or outer) side, 2 acyl side, 3 side chain; on linkers, the order of the positions; unused ones are H or OH. Bridge positions count the residues as written; N and C are the ends. Square brackets hold non-standard residues; d marks the D form. Peptide text beside a SMILES is read from it. 2Nal = N[C@@H](Cc1ccc2ccccc2c1)C(=O)O; TBMB = c1c(C[*:1])cc(C[*:3])cc1C[*:2]; Cha = N[C@@H](CC1CCCCC1)C(=O)O; Phg = N[C@H](C(=O)O)c1ccccc1
Give measured Kd for each item. Keep answers brief.
Give bare numbers, in nM.

Past entries and their recorded results:
[[record]]
molecule = "CC[C@H](C)[C@@H]1NC(=O)[C@H](CC(=O)O)NC(=O)[C@H](Cc2ccc(O)cc2)NC(=O)[C@H](Cc2ccccc2)NC(=O)[C@H](CC(=O)O)NC(=O)[C@H](CCC(=O)O)NC(=O)[C@@H]2CSCc3cc(cc(c3)CSC[C@H](NC(C)=O)C(=O)N[C@@H](Cc3ccc(O)cc3)C(=O)N[C@@H](CC(N)=O)C(=O)N[C@@H](CCC(=O)O)C(=O)N[C@@H](CC3CCCCC3)C(=O)NCC(=O)N2)CSC[C@@H](C(N)=O)NC1=O [17-69-07-N139, Ac-(17-69-07) Cha4] (Ac-CYNE[Cha]GCEDFYDIC-NH2; linker 1-7-14 via TBMB)"
experimental_value = 362

[[record]]
molecule = "CC[C@H](C)[C@@H]1NC(=O)[C@H](CC(=O)O)NC(=O)[C@H](Cc2ccc(O)cc2)NC(=O)[C@H](Cc2ccccc2)NC(=O)[C@H](CC(=O)O)NC(=O)[C@H](CCC(=O)O)NC(=O)[C@@H]2CSCc3cc(cc(c3)CSC[C@H](NC(C)=O)C(=O)N[C@@H](Cc3ccc(O)cc3)C(=O)N[C@@H](CC(N)=O)C(=O)N[C@@H](CCC(=O)O)C(=O)N[C@@H](Cc3ccc4ccccc4c3)C(=O)NCC(=O)N2)CSC[C@@H](C(N)=O)NC1=O [17-69-07-N068, Ac-(17-69-07) 2NAl4] (Ac-CYNE[2Nal]GCEDFYDIC-NH2; linker 1-7-14 via TBMB)"
experimental_value = 0.7


Look at each molecule and report its Kd.
1. CC[C@H](C)[C@@H]1NC(=O)[C@H](CC(=O)O)NC(=O)[C@H](Cc2ccc(O)cc2)NC(=O)[C@H](Cc2ccccc2)NC(=O)[C@H](CC(=O)O)NC(=O)[C@H](CCC(=O)O)NC(=O)[C@@H]2CSCc3cc(cc(c3)CSC[C@H](NC(C)=O)C(=O)N[C@@H](Cc3ccc(O)cc3)C(=O)N[C@@H](CC(N)=O)C(=O)N[C@@H](CCC(=O)O)C(=O)N[C@@H](Cc3ccc(O)cc3)C(=O)NCC(=O)N2)CSC[C@@H](C(N)=O)NC1=O [17-69-07-N057, Ac-(17-69-07) Tyr4] (Ac-CYNEYGCEDFYDIC-NH2; linker 1-7-14 via TBMB)
2. CC[C@H](C)[C@@H]1NC(=O)[C@H](CC(=O)O)NC(=O)[C@H](Cc2ccc(O)cc2)NC(=O)[C@H](Cc2ccccc2)NC(=O)[C@H](CC(=O)O)NC(=O)[C@H](CCC(=O)O)NC(=O)[C@@H]2CSCc3cc(cc(c3)CSC[C@H](NC(C)=O)C(=O)N[C@@H](Cc3ccc(O)cc3)C(=O)N[C@@H](CC(N)=O)C(=O)N[C@@H](CCC(=O)O)C(=O)N[C@@H](c3ccccc3)C(=O)NCC(=O)N2)CSC[C@@H](C(N)=O)NC1=O [17-69-07-N071, Ac-(17-69-07) Phg4] (Ac-CYNE[Phg]GCEDFYDIC-NH2; linker 1-7-14 via TBMB)
3. CC[C@H](C)[C@@H]1NC(=O)[C@H](CC(=O)O)NC(=O)[C@H](Cc2ccc(O)cc2)NC(=O)[C@H](Cc2ccccc2)NC(=O)[C@H](CC(=O)O)NC(=O)[C@H](CCC(=O)O)NC(=O)[C@@H]2CSCc3cc(cc(c3)CSC[C@H](NC(C)=O)C(=O)N[C@@H](Cc3ccc(O)cc3)C(=O)N[C@@H](CC(N)=O)C(=O)N[C@@H](CCC(=O)O)C(=O)N[C@@H](Cc3c[nH]c4ccccc34)C(=O)NCC(=O)N2)CSC[C@@H](C(N)=O)NC1=O [17-69-44-N002, Ac-(17-69-07) Trp4] (Ac-CYNEWGCEDFYDIC-NH2; linker 1-7-14 via TBMB)

1. 1.78
2. 628
3. 0.75
